assay system: Recombinant Human DLL4 (human, UniProt Q9NR61 27-524)
Sequence (Q9NR61 27-524 limits assumed): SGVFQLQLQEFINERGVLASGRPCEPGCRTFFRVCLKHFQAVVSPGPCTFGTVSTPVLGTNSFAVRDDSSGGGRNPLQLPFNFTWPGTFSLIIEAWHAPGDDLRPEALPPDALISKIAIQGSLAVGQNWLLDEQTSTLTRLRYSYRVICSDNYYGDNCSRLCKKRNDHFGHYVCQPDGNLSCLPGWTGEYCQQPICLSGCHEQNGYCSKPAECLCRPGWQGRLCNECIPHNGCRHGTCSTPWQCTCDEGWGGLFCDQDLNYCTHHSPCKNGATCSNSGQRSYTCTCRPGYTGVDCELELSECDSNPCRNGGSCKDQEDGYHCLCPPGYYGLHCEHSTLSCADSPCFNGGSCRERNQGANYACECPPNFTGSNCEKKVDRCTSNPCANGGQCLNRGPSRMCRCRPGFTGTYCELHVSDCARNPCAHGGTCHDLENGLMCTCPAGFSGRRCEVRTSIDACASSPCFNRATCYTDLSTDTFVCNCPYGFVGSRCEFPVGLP
assay method text: SPR (BIACORE)
Field: pKd. Provide a value for each of the binders that follow.
Answers are plain numbers, as −log10 of the molar value.

Parameters: items (list). Returns: pKd for each item.
1. AB319 (antibody, human IgG1, kappa, V domains shown, CDR-grafted parent antibody) VH: EVQLVESGGGLVQPANSLKLSCAASGFTFSNFPMAWVRQSPKKGLEWVATISSSDGTTYYRDSVKGRFTISRDNAKNTLYLQMDSLRSEDTATYYCARGYYNSPFAYWGQGVLVTVSS VL: DIRMTQSPASLSASLGETVNIECRASEDIYSNLAWYQQKPGKAPQLLIYDTNNLADGVPSRFSGSGSGTQFSLKINSLQSEDVATYYCQQYNNYPPTFGGGTKLELKR
2. AB307 (antibody, human IgG1, kappa, V domains shown, CDR-grafted parent antibody) VH: EVQLLESGGGLVQPGGSLRLSCAVSGGSISSSSYYWGWIRQAPGKGLEWIGDIYYTGSTYYNPSLKSRVTISVDTSKNTFYLQMNSLRAEDTAVYYCARQALAMGGGSDKWGQGTLVTVSS VL: EYVLTQSPGTLSLSPGERATLSCSGQRLGDKYASWYQQKPGQSPRLVIYEDSKRPSGIPDRFSGSNSGDDATLTISRLEPEDFAVFYCQAWDRDTGVFGQGTKVEIKR

Ans.
7.70
9.00
